Reported normalized growth values for the following compounds.
- TEST_PROTOCOL: chemical genetic growth profiling, strain panel (AID 1159580);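 also: tested at 20 µM; growth read once vehicle control cultures reached saturation at 30 °C; 1 = growth at the plate median or of vehicle wells; lower values mean less growth of the strain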
- CONDITION_SUMMARY: S. cerevisiae deletion strains, growth OD, locus YJR043C, strain POL32, active compounds read low
About 2,000 (36%) of roughly 5,500 compounds were called active. About 18% were inconclusive and are not listed. The list shows a part of the results.
VALUE_KIND: normalized growth

• CC(=O)O[C@H]1CC[C@]2(C)C3CC(=O)[C@]4(C)C(C(C)=O)=CCC4C3CC[C@H]2C1 (some centres undefined) = 1.01 (inactive)
• COc1cc2c(cc1OC)[C@@]13CCN4CC5=CCOC6CC(=O)N2C1[C@H]6[C@H]5C[C@H]43 (some centres undefined) = 1.04 (inactive)
• OC(CSc1ccccc1)CN1CCN(c2ccc(C(F)(F)F)cn2)CC1 (centres undefined) = 0.991 (inactive)
• CSc1nc(N)nc(N2CCCCC2)n1 = 1 (inactive)
• CN(C(=O)Nc1ccccc1)n1cnc2ccccc2c1=O = 0.998 (inactive)
• CC(=O)O[C@H]1CC[C@]2(C)C3CC[C@@]4(C)C(CC5O[C@@]6(CCC(C)CO6)[C@@H](C)C54)C3CC[C@@H]2C1 (some centres undefined) = 1.01 (inactive)
• Cc1ccc(N=Nc2c(C)[nH]n(C)c2=O)cc1 = 0.896 (active)
• O=C1C=C(Cl)CC(c2ccc(C(F)(F)F)cc2)C1 (centres undefined) = 1.01 (inactive)
• COc1cccc(C(=O)N/N=C(/C)c2ccccc2O)c1 = 0.958 (inactive)
• CC(=O)Nc1cc2ccccc2oc1=O = 1.01 (inactive)
• OCCN1CCN(CCCN2c3ccccc3Sc3ccc(C(F)(F)F)cc32)CC1 = 0.971 (inactive)
• CC(=O)c1cc2cc(Br)ccc2oc1=O = 0.984 (inactive)
• COc1cccc(NC(=O)NC2Cc3ccccc3C2)c1 = 0.982 (inactive)
• Cc1cc(C(C)(C)C)c(O)c(C)c1CC1=NCCN1 = 0.982 (inactive)
• COC1(C)CCC2OC2(C)CCC2C1CC2(C)C (centres undefined) = 0.99 (inactive)
• NC1CC1c1ccccc1 (centres undefined) = 0.992 (inactive)
• CCCc1nc2c(C)cc(-c3nc4ccccc4n3C)cc2n1Cc1ccc(-c2ccccc2C(=O)O)cc1 = 0.991 (inactive)
• CN1CCN(CCCN2c3ccccc3Sc3ccc(C(F)(F)F)cc32)CC1 = 0.0718 (active)
• N#Cc1sccc1Br = 1.01 (inactive)
• COc1ccc(C2C(=O)c3ccccc3C2=O)cc1 = 1 (inactive)
• O=C(Nc1cccnc1)c1cccc(Cl)c1Cl = 0.993 (inactive)
• COP(=O)(OC)OC(Br)C(Cl)(Cl)Br (centres undefined) = 0.999 (inactive)
• CCCCc1nc(Cl)c(CO)n1Cc1ccc(-c2ccccc2-c2nn[nH]n2)cc1 = 1.02 (inactive)
• O=C(O)[C@H](O)[C@@](O)(Cc1ccc(O)cc1)C(=O)O = 1.06 (inactive)

---

- TEST_PROTOCOL: chemical genetic growth profiling, strain panel (AID 1159580);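 also: tested at 20 µM; growth read once vehicle control cultures reached saturation at 30 °C; 1 = growth at the plate median or of vehicle wells; lower values mean less growth of the strain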
- CONDITION_SUMMARY: S. cerevisiae deletion strains, growth OD, locus YDR069C, strain doa4
Among all 5,500 compounds or so, about 2,000 (36%) were called active. Roughly 18% stayed inconclusive and do not appear here. Rule as the data show it: active = normalized growth mostly below about 0.91 (no sharp cut-off); inconclusive = no clear call, values can overlap the other calls; inactive = mostly above about 0.92. Some of the results follow.
Labels: active, inactive

* COc1ccc(-c2oc3ccccc3c(=O)c2O)cc1OC | active
* O=c1c(O)c(-c2ccc(O)c(O)c2)oc2cc(O)ccc12 | inactive
* CC[C@H]1OC(=O)[C@H](C)[C@@H](O[C@H]2C[C@@](C)(OC)[C@@H](O)[C@H](C)O2)[C@H](C)[C@@H](O[C@@H]2O[C@H](C)C[C@H](N(C)C)[C@H]2O)[C@](C)(O)C[C@@H](C)[C@@H]2N[C@@H](COCCOC)O[C@H]([C@H]2C)[C@]1(C)O | inactive
* COC(=O)C[C@H]1C(C)(C)[C@@H](O)[C@@H]2CC3=C4C=C(OC)O[C@@H](c5ccoc5)[C@]4(C)CCC3[C@@]1(C)C2=O (some centres undefined) | inactive
